target: UniProt P08183; experiment: Inhibition of P-gp in human MES-SA/Dx5 cells
Sequence (P08183 whole entry): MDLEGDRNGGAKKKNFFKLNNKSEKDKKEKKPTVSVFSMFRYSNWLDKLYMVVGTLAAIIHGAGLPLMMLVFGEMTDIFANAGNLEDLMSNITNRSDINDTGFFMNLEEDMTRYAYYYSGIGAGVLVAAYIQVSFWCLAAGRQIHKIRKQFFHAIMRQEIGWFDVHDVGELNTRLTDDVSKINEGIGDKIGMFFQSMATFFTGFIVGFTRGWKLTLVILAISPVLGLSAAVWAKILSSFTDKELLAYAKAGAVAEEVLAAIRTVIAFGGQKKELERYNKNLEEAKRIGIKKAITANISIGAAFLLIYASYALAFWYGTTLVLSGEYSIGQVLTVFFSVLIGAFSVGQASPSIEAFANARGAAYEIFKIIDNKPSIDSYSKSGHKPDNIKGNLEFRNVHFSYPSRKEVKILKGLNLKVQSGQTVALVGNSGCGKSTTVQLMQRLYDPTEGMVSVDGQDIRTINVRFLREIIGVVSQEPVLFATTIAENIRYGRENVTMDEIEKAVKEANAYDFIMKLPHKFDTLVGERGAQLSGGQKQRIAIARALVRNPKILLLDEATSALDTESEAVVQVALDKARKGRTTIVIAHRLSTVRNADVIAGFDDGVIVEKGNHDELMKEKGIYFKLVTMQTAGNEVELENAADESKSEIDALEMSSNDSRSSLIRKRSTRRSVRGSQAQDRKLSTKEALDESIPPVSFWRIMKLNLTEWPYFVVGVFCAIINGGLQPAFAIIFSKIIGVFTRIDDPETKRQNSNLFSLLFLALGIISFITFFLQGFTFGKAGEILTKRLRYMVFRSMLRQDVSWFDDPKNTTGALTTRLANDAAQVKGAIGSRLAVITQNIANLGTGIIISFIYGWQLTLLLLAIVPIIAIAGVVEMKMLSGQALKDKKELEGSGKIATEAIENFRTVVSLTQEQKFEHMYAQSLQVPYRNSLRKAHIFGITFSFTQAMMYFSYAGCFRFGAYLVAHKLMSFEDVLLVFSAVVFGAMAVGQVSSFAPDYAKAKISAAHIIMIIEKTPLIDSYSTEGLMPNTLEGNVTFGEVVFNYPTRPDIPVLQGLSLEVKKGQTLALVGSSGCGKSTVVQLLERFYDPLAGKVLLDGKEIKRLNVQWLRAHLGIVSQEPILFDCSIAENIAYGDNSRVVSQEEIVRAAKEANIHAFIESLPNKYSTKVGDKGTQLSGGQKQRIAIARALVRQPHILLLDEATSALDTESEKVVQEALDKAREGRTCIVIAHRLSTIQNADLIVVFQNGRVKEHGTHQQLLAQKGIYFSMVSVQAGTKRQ
Here, each record is paired with measured EC50 data.
Give a bare numeral; the unit µM is implied.

# annotated cases, reported EC50 shown
{"SUBSTANCE SMILES": "COc1cc(NC(=O)c2cnc3ccccc3c2)c(C(=O)Nc2ccc(N3CCN(Cc4cccc(-n5cncn5)c4)CC3)cc2)cc1OC", "UNIT TAG": "µM", "EC50": 0.354}
{"SUBSTANCE SMILES": "COc1cc(NC(=O)c2cnc3ccccc3c2)c(C(=O)Nc2ccc(N3CCN(Cc4cccc(-n5ccnc5)c4)CC3)cc2)cc1OC", "UNIT TAG": "µM", "EC50": 0.033}

Task: Query EC50 for COc1cc(NC(=O)c2cc(=O)c3ccccc3o2)c(C(=O)Nc2ccc(N3CCN(Cc4cccc(-n5ccnc5)c4)CC3)cc2)cc1OC
Result: 0.039

Task: Indicate its recorded EC50; the compound in question is COc1cc(NC(=O)c2cnc3ccccc3c2)c(C(=O)Nc2ccc(C3CCN(Cc4cccc(-n5cncn5)c4)CC3)cc2)cc1OC
Result: 0.156

These measurements were taken from ChEMBL document CHEMBL5523718.
